Test system: Lung
Procedure summary: Biodistribution in ddY mouse lung at 0.2 to 0.3 uCi, iv after 2 mins
Format: ADME, organism-based
Experimental setup: in vivo
Readout: Drug uptake
Be sure to follow the number with its unit.

*Q* Using known records, supply Drug uptake for CN(C)c1ccc(/C=C/C(=O)c2ccc([125I])cc2)cc1
*A* 3.4 % ID/g

*Q* Using known records, supply Drug uptake for COc1ccc(/C=C/C(=O)c2ccc([125I])cc2)cc1
*A* 3.81 % ID/g

*Q* Using known records, supply Drug uptake for Nc1ccc(/C=C/C(=O)c2ccc([125I])cc2)cc1
*A* 4.74 % ID/g

*Q* Using known records, supply Drug uptake for CNc1ccc(/C=C/C(=O)c2ccc([125I])cc2)cc1
*A* 8.3 % ID/g

*Q* Using known records, supply Drug uptake for O=C(/C=C/c1ccc(O)cc1)c1ccc([125I])cc1
*A* 10.04 % ID/g

---

System: Intestine
Procedure summary: Biodistribution in ddY mouse intestine at 0.2 to 0.3 uCi, iv after 2 mins
Assay type: ADME, organism-based
Experimental setup: in vivo
For each of the compounds below, state its Drug uptake.

*Q* Using known records, supply Drug uptake for O=C(/C=C/c1ccc(O)cc1)c1ccc([125I])cc1
*A* 1.87 % ID/g

*Q* Using known records, supply Drug uptake for CN(C)c1ccc(/C=C/C(=O)c2ccc([125I])cc2)cc1
*A* 1.31 % ID/g

*Q* Using known records, supply Drug uptake for COc1ccc(/C=C/C(=O)c2ccc([125I])cc2)cc1
*A* 1.93 % ID/g

*Q* Using known records, supply Drug uptake for CNc1ccc(/C=C/C(=O)c2ccc([125I])cc2)cc1
*A* 2.06 % ID/g

*Q* Using known records, supply Drug uptake for Nc1ccc(/C=C/C(=O)c2ccc([125I])cc2)cc1
*A* 1.84 % ID/g

---

System: Blood
Procedure summary: Biodistribution in ddY mouse blood at 0.2 to 0.3 uCi, iv after 2 mins
Format: ADME, organism-based
Experimental setup: in vivo
hey, just use Condition met if measured Drug uptake is less than 2 % ID/g, otherwise Condition not met

*Q* Is Drug uptake strictly under 2 % ID/g for the entry CN(C)c1ccc(/C=C/C(=O)c2ccc([125I])cc2)cc1 ?
*A* Condition met

*Q* Is Drug uptake strictly under 2 % ID/g for the entry COc1ccc(/C=C/C(=O)c2ccc([125I])cc2)cc1 ?
*A* Condition met

*Q* Is Drug uptake strictly under 2 % ID/g for the entry O=C(/C=C/c1ccc(O)cc1)c1ccc([125I])cc1 ?
*A* Condition met

*Q* Is Drug uptake strictly under 2 % ID/g for the entry CNc1ccc(/C=C/C(=O)c2ccc([125I])cc2)cc1 ?
*A* Condition met

*Q* Is Drug uptake strictly under 2 % ID/g for the entry Nc1ccc(/C=C/C(=O)c2ccc([125I])cc2)cc1 ?
*A* Condition not met

---

For each of the molecules below, state its Drug uptake.
Test system: Liver
Procedure summary: Biodistribution in ddY mouse liver at 0.2 to 0.3 uCi, iv after 30 mins
Assay type: ADME, organism-based
Experimental setup: in vivo, 0.5 h
Report only the number, with the unit % ID/g understood.

*Q* Using known records, supply Drug uptake for Nc1ccc(/C=C/C(=O)c2ccc([125I])cc2)cc1
*A* 8.16

*Q* Using known records, supply Drug uptake for CN(C)c1ccc(/C=C/C(=O)c2ccc([125I])cc2)cc1
*A* 11.04

*Q* Using known records, supply Drug uptake for O=C(/C=C/c1ccc(O)cc1)c1ccc([125I])cc1
*A* 6.64

*Q* Using known records, supply Drug uptake for COc1ccc(/C=C/C(=O)c2ccc([125I])cc2)cc1
*A* 4.03

*Q* Using known records, supply Drug uptake for CNc1ccc(/C=C/C(=O)c2ccc([125I])cc2)cc1
*A* 8.61

---

Tested on: Heart
Procedure summary: Biodistribution in ddY mouse heart at 0.2 to 0.3 uCi, iv after 2 mins
Assay type: ADME, organism-based
Experimental setup: in vivo
Readout: Drug uptake
Be sure to follow the number with its unit.

*Q* Using known records, supply Drug uptake for CNc1ccc(/C=C/C(=O)c2ccc([125I])cc2)cc1
*A* 4.72 % ID/g

*Q* Using known records, supply Drug uptake for O=C(/C=C/c1ccc(O)cc1)c1ccc([125I])cc1
*A* 5.92 % ID/g

*Q* Using known records, supply Drug uptake for CN(C)c1ccc(/C=C/C(=O)c2ccc([125I])cc2)cc1
*A* 3.92 % ID/g

*Q* Using known records, supply Drug uptake for COc1ccc(/C=C/C(=O)c2ccc([125I])cc2)cc1
*A* 3.74 % ID/g

*Q* Using known records, supply Drug uptake for Nc1ccc(/C=C/C(=O)c2ccc([125I])cc2)cc1
*A* 4.59 % ID/g

---

Test system: Stomach
Procedure summary: Biodistribution in ddY mouse stomach after 30 mins
Format: ADME, organism-based
Experimental setup: in vivo, 0.5 h
For each of the compounds below, state its Drug uptake.
Report only the number, with the unit %ID understood.

*Q* Using known records, supply Drug uptake for CNc1ccc(/C=C/C(=O)c2ccc([125I])cc2)cc1
*A* 1.28

*Q* Using known records, supply Drug uptake for Nc1ccc(/C=C/C(=O)c2ccc([125I])cc2)cc1
*A* 1.58

*Q* Using known records, supply Drug uptake for COc1ccc(/C=C/C(=O)c2ccc([125I])cc2)cc1
*A* 2.11

*Q* Using known records, supply Drug uptake for CN(C)c1ccc(/C=C/C(=O)c2ccc([125I])cc2)cc1
*A* 2.45

*Q* Using known records, supply Drug uptake for O=C(/C=C/c1ccc(O)cc1)c1ccc([125I])cc1
*A* 2.16

---

Tested on: Brain
Procedure summary: Biodistribution in ddY mouse brain at 0.2 to 0.3 uCi, iv after 2 mins
Assay type: ADME, organism-based
Experimental setup: in vivo
For each of the molecules below, state its Drug uptake.
Report only the number, with the unit % ID/g understood.

*Q* State, for Brain, measured Drug uptake of the molecule listed here: CN(C)c1ccc(/C=C/C(=O)c2ccc([125I])cc2)cc1
*A* 2.04

*Q* State, for Brain, measured Drug uptake of the molecule listed here: O=C(/C=C/c1ccc(O)cc1)c1ccc([125I])cc1
*A* 3.57

*Q* State, for Brain, measured Drug uptake of the molecule listed here: COc1ccc(/C=C/C(=O)c2ccc([125I])cc2)cc1
*A* 2.45

*Q* State, for Brain, measured Drug uptake of the molecule listed here: CNc1ccc(/C=C/C(=O)c2ccc([125I])cc2)cc1
*A* 4.72

*Q* State, for Brain, measured Drug uptake of the molecule listed here: Nc1ccc(/C=C/C(=O)c2ccc([125I])cc2)cc1
*A* 4.49

---

System: Brain
Procedure summary: Biodistribution in ddY mouse brain at 0.2 to 0.3 uCi, iv after 30 mins
Assay type: ADME, organism-based
Experimental setup: in vivo, 0.5 h
For each of the compounds below, state its Drug uptake.
Report only the number, with the unit % ID/g understood.

*Q* Using known records, supply Drug uptake for CNc1ccc(/C=C/C(=O)c2ccc([125I])cc2)cc1
*A* 0.61

*Q* Using known records, supply Drug uptake for COc1ccc(/C=C/C(=O)c2ccc([125I])cc2)cc1
*A* 0.22

*Q* Using known records, supply Drug uptake for CN(C)c1ccc(/C=C/C(=O)c2ccc([125I])cc2)cc1
*A* 0.49

*Q* Using known records, supply Drug uptake for O=C(/C=C/c1ccc(O)cc1)c1ccc([125I])cc1
*A* 0.4

*Q* Using known records, supply Drug uptake for Nc1ccc(/C=C/C(=O)c2ccc([125I])cc2)cc1
*A* 0.46

---

For each of the compounds below, state its Drug uptake.
Test system: Spleen
Procedure summary: Biodistribution in ddY mouse spleen assessed as at 0.2 to 0.3 uCi, iv after 30 mins
Format: ADME, organism-based
Experimental setup: in vivo, 0.5 h
Report only the number, with the unit % ID/g understood.

*Q* Using known records, supply Drug uptake for Nc1ccc(/C=C/C(=O)c2ccc([125I])cc2)cc1
*A* 0.6

*Q* Using known records, supply Drug uptake for CNc1ccc(/C=C/C(=O)c2ccc([125I])cc2)cc1
*A* 0.8

*Q* Using known records, supply Drug uptake for COc1ccc(/C=C/C(=O)c2ccc([125I])cc2)cc1
*A* 0.29

*Q* Using known records, supply Drug uptake for CN(C)c1ccc(/C=C/C(=O)c2ccc([125I])cc2)cc1
*A* 0.6

*Q* Using known records, supply Drug uptake for O=C(/C=C/c1ccc(O)cc1)c1ccc([125I])cc1
*A* 1.04

---

Test system: Heart
Procedure summary: Biodistribution in ddY mouse heart at 0.2 to 0.3 uCi, iv after 30 mins
Assay type: ADME, organism-based
Experimental setup: in vivo, 0.5 h
Readout: Drug uptake (% ID/g)
Report only the number, with the unit % ID/g understood.

*Q* Using known records, supply Drug uptake for Nc1ccc(/C=C/C(=O)c2ccc([125I])cc2)cc1
*A* 0.84

*Q* Using known records, supply Drug uptake for O=C(/C=C/c1ccc(O)cc1)c1ccc([125I])cc1
*A* 0.49

*Q* Using known records, supply Drug uptake for CNc1ccc(/C=C/C(=O)c2ccc([125I])cc2)cc1
*A* 1.08

*Q* Using known records, supply Drug uptake for CN(C)c1ccc(/C=C/C(=O)c2ccc([125I])cc2)cc1
*A* 1.18

*Q* Using known records, supply Drug uptake for COc1ccc(/C=C/C(=O)c2ccc([125I])cc2)cc1
*A* 0.63
